Test system: Ruminococcus gnavus DSM 108212
Experiment: growth (OD595) fold change vs plate DMSO controls (fold change (ratio)); higher = more growth
Settings: 20 µM; incubation time: 27 h, anaerobic, 37 °C
Structures can show the parent of a compound that is named as a salt.
Give True when the value for growth is at least 1. Give False when it is less.

| compound | classAssignment |
| --- | --- |
| O=c1c2ccccc2[se]n1-c1ccccc1 [Ebselen] | True |
| O=C(O[C@H]1C[N+]2(CCCOc3ccccc3)CCC1CC2)C(O)(c1cccs1)c1cccs1 [Aclidinium bromide] | True |
| NC(=O)CN1CC(O)CC1=O (stereo not given) [Oxiracetam] | False |
| CC[C@@H](C(=O)[C@@H](C)[C@@H](O)[C@H](C)[C@@H]1O[C@@H]([C@@H](CC)C(=O)O)CC[C@@H]1C)[C@H]1O[C@]2(C=C[C@@H](O)[C@]3(CC[C@@](C)([C@H]4CC[C@](O)(CC)[C@H](C)O4)O3)O2)[C@H](C)C[C@@H]1C [Salinomycin sodium] | False |
| CN1CCN(C(=O)OC2c3nccnc3C(=O)N2c2ccc(Cl)cn2)CC1 (stereo not given) [Zopiclone] | False |
| CCCC(C)(COC(N)=O)COC(=O)NC(C)C (stereo not given) [Carisoprodol] | False |
| C=C(C)[C@@H]1[C@H]2OC(=O)[C@@H]1[C@]1(O)C[C@H]3O[C@]34C(=O)O[C@H]2[C@]14C [Picrotoxinin] | True |
| Cc1cccc(C)c1NC1=NCCCS1 [Xylazine] | False |
| O=C(CCCN1CCC(n2c(=O)[nH]c3ccccc32)CC1)c1ccc(F)cc1 [Benperidol] | False |
| CON(C)C(=O)Nc1ccc(Cl)c(Cl)c1 | True |
| C[C@]12Cc3c[nH]nc3C[C@@H]1CC[C@@H]1[C@@H]2CC[C@@]2(C)[C@H]1CC[C@]2(C)O [Stanozolol] | True |
| CC(C)(C)c1ccc(CSc2cnn(C(C)(C)C)c(=O)c2Cl)cc1 | True |
| CCCCN(CCCC)N=O [DBNA (N-nitrosodibutylamine)] | False |
| COc1ccc(OC)c(C(O)C(C)N)c1 (stereo not given) [Methoxamine hydrochloride] | False |
| O=[N+]([O-])O[C@H]1CO[C@H]2[C@@H]1OC[C@H]2O[N+](=O)[O-] [Isosorbide dinitrate] | True |
| O=C(O)C(F)(F)C(F)(F)C(F)(F)C(F)(F)C(F)(F)C(F)(F)C(F)(F)C(F)(F)F [PFNA (Perfluorononanoic acid)] | True |
| CC(C)c1c(CN(C)C(C)Cc2ccccc2)n(C)n(-c2ccccc2)c1=O (stereo not given) [Famprofazone] | True |
| CC(O)(CS(=O)(=O)c1ccc(F)cc1)C(=O)Nc1ccc(C#N)c(C(F)(F)F)c1 (stereo not given) [Bicalutamide] | True |
| O=C1c2ccccc2C(=O)N1SC(Cl)(Cl)Cl | False |
| CC(=O)O[C@H]1C[C@@H]2CC[C@@H]3[C@H](CC[C@@]4(C)[C@H]3C[C@H]([N+]3(C)CCCCC3)[C@@H]4OC(C)=O)[C@@]2(C)C[C@@H]1[N+]1(C)CCCCC1 [Pancuronium bromide] | True |
| COc1cccc(C(=O)NN(C(=O)c2cc(C)cc(C)c2)C(C)(C)C)c1C | True |
| CCn1cc(C(=O)O)c(=O)c2cc3c(cc21)OCO3 [Oxolinic acid] | False |
| Fc1ccc(C(OCCN2CCN(CCCc3ccccc3)CC2)c2ccc(F)cc2)cc1 | False |

----------
Test system: Klebsiella aerogenes DSM 30053
Test: growth (OD595) fold change vs plate DMSO controls (fold change (ratio)); higher = more growth
Conditions: 20 µM; incubation time: 27 h, anaerobic, 37 °C
Structures can show the parent of a compound that is named as a salt.
Recorded growth, one value per entry.

| molecule | assayedSystem | growth |
| --- | --- | --- |
| C=CC[C@]1(O)CC[C@H]2[C@@H]3CCC4=CCCC[C@@H]4[C@H]3CC[C@@]21C | Klebsiella aerogenes DSM 30053 | 1.06 |
| C#CCOc1ccc(CCNC(=O)C(OCC#C)c2ccc(Cl)cc2)cc1OC (stereo unspecified) | Klebsiella aerogenes DSM 30053 | 1.03 |
| c1ccc2c(c1)OCC(C1=NCCN1)O2 (stereo unspecified) [Idazoxan hydrochloride] | Klebsiella aerogenes DSM 30053 | 1.01 |
| CC[C@H]1CCC[C@H](O[C@H]2CC[C@H](N(C)C)[C@@H](C)O2)[C@@H](C)C(=O)C2=C[C@@H]3[C@@H](C=C(C)[C@@H]4C[C@@H](O[C@@H]5O[C@@H](C)[C@H](OC)[C@@H](OC)[C@H]5OC)C[C@@H]34)[C@@H]2CC(=O)O1.CC[C@H]1CCC[C@H](O[C@H]2CC[C@H](N(C)C)[C@@H](C)O2)[C@@H](C)C(=O)C2=C[C@H]3[C@@H]4C[C@H](O[C@@H]5O[C@@H](C)[C@H](OC)[C@@H](OC)[C@H]5OC)C[C@H]4C=C[C@H]3C2CC(=O)O1 | Klebsiella aerogenes DSM 30053 | 1.01 |
| CS(=O)(=O)c1ccc(C(=O)C2C(=O)CCCC2=O)c([N+](=O)[O-])c1 | Klebsiella aerogenes DSM 30053 | 1 |
| CN1COCN(Cc2cnc(Cl)s2)/C1=N\[N+](=O)[O-] | Klebsiella aerogenes DSM 30053 | 1 |

----------
Measured fold change of Putrescine concentration of individual entries
Tested on: Escherichia coli IAI1
Experiment: fold change of Putrescine concentration vs plate DMSO controls (fold change (ratio)); higher = more amine produced, active = hit call of the paper (significant change in both replicates, either direction)
Details: 20 µM; incubation time: 27 h, anaerobic, 37 °C
Structures can show the parent of a compound that is named as a salt.
measuredEndpoint: fold change of Putrescine concentration

| molecule | measuredEndpoint | measuredNumber |
| --- | --- | --- |
| OC(Cc1ccccc1Cl)(Cn1nc[nH]c1=S)C1(Cl)CC1 (centres undefined) | fold change of Putrescine concentration | 0.937 |
| c1cc2c3c(cccc3c1)CC2 | fold change of Putrescine concentration | 1.02 |
| CC(=O)O[C@H]1C[C@@H]2CC[C@@H]3[C@H](CC[C@@]4(C)[C@H]3C[C@H]([N+]3(C)CCCCC3)[C@@H]4OC(C)=O)[C@@]2(C)C[C@@H]1[N+]1(C)CCCCC1 [Pancuronium bromide] | fold change of Putrescine concentration | 1.07 |
| CC(NC(C)(C)C)C(=O)c1cccc(Cl)c1 (centres undefined) [Bupropion hydrochloride] | fold change of Putrescine concentration | 1.02 |

----------
Tested on: Escherichia coli IAI1
Assay: fold change of Cadaverine concentration vs plate DMSO controls (fold change (ratio)); higher = more amine produced, active = hit call of the paper (significant change in both replicates, either direction);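 for the amine columns active = adjusted P below 0.05 in both replicates with a change the same way and a mean fold change under 0.8 or over 1.25; inactive = the rest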
Conditions: 20 µM; incubation time: 27 h, anaerobic, 37 °C
Where a name gives a salt, the structure may show the parent alone.
Labels: active, inactive

| molecule | assayedSystem | classAssignment |
| --- | --- | --- |
| CS(=O)(=O)NC(=O)c1cc(Oc2ccc(C(F)(F)F)cc2Cl)ccc1[N+](=O)[O-] | Escherichia coli IAI1 | inactive |
| COc1ccc2c(c1)[C@]13CCCC[C@@H]1[C@H](C2)N(C)CC3 [Dextromethorphan hydrobromide monohydrate] | Escherichia coli IAI1 | inactive |
| NC(=O)CN1CC(O)CC1=O (stereo not given) | Escherichia coli IAI1 | inactive |
| CCCN(CCC)N=O | Escherichia coli IAI1 | inactive |
| CCOCN(C(=O)CCl)c1c(C)cccc1CC | Escherichia coli IAI1 | inactive |
| CC(=O)OCC1=C(C(=O)O)N2C(=O)[C@@H](N)[C@H]2SC1 | Escherichia coli IAI1 | inactive |
| NC(=O)OCCCc1ccccc1 [Phenprobamate] | Escherichia coli IAI1 | inactive |
| CCOP(=S)(OCC)Oc1nc(Cl)c(Cl)cc1Cl | Escherichia coli IAI1 | inactive |
| NCC(O)c1ccc(O)cc1 (stereo not given) [Octopamine hydrochloride] | Escherichia coli IAI1 | inactive |
| Oc1ccc(Cl)cc1Cc1cc(Cl)ccc1O | Escherichia coli IAI1 | active |
| COc1cc(C)c(C(=O)c2c(OC)ccc(Br)c2C)c(OC)c1OC | Escherichia coli IAI1 | inactive |
| CCC(CC)Nc1c([N+](=O)[O-])cc(C)c(C)c1[N+](=O)[O-] | Escherichia coli IAI1 | inactive |
| CCC(C)c1ccccc1OC(=O)NC (stereo not given) | Escherichia coli IAI1 | inactive |
| C[C@@H]1CC[C@H]2[C@@H](C)C(=O)O[C@@H]3O[C@@]4(C)CC[C@@H]1[C@]32OO4 | Escherichia coli IAI1 | inactive |
| Cc1cc(C(C#N)c2ccc(Cl)cc2)c(Cl)cc1NC(=O)c1cc(I)cc(I)c1O (stereo not given) | Escherichia coli IAI1 | active |
| COP(=S)(OC)Oc1ccc(SC)c(C)c1 | Escherichia coli IAI1 | inactive |
| C[C@]12CC[C@@H]3c4ccc(OC(=O)N(CCCl)CCCl)cc4CC[C@H]3[C@@H]1CC[C@@H]2O | Escherichia coli IAI1 | inactive |
| C#CCN(C)[C@H](C)Cc1ccccc1 [Selegiline hydrochloride] | Escherichia coli IAI1 | inactive |
| CC(NC(C)(C)C)C(=O)c1cccc(Cl)c1 (stereo not given) [Bupropion hydrochloride] | Escherichia coli IAI1 | inactive |
| C[N+]1(C)[C@@H]2CC[C@H]1C[C@@H](OC(=O)C(CO)c1ccccc1)C2 (stereo not given in full) [Methylatropine nitrate] | Escherichia coli IAI1 | inactive |
